biological target: T1, monomeric SARS-CoV-2 receptor binding domain (RBD-H6) (SARS-CoV-2, UniProt P0DTC2 319-541); test: ELISA screen
T1 construct: Made in HEK293-6E cells; also called RBD Spike; monomeric RBD
Quantity measured: Mean normalized OD (OD)
# output: bare number, implied unit OD

// known answers, use as guide
Reg3g CRD-mouse IgG2a-Fc fusion protein (Fc fusion) YGSYCYALFSVSKNWYDADMACQKRPSGHLVSVLSGAEASFLSSMIKSSGNSGQYVWIGLHDPTLGYEPNRGGWEWSNADVMNYINWETNPSSSSGNHCGTLSRASGFLKWRENYCNLELPYVCKGGGSGGGSGGGS = 0.017
Layn CRD-mouse IgG2a-Fc fusion protein (Fc fusion) TRRPCYKVIYFHDAFQRLNFEEAKETCMEDGGQLVSIETEDEQRLIEKFIENLLASDGDFWIGLKRLEEKQSNNTACQDLYAWTDGSTSQFRNWYVDEPSCGSEVCVVMYHQPSAPPGIGGSYMFQWNDDRCNMKNNFICKGGGSGGGSGGGS = 0
Mrc2_8 CRD-mouse IgG2a-Fc fusion protein (Fc fusion) FREHCYSFHMEVLLGHKEALQRCQKAGGTVLSILDEMENVFVWEHLQTAEAQSRGAWLGMNFNPKGGTLVWQDNTAVNYSNWGPPGLGPSMLSHNSCYWIQSSSGLWRPGACTNITMGVVCGGGSGGGSGGGS = 0.003

Problem: Would you mind telling me what Mean normalized OD value was observed for Sftpd CRD-mouse IgG2a-Fc fusion protein (Fc fusion) VGDKIFRTADSEKPFEDAQEMCKQAGGQLASPRSATENAAIQQLITAHNKAAFLSMTDVGTEGKFTYPTGEPLVYSNWAPGEPNNNGGAENCVEIFTNGQWNDKACGEQRLVICEFGGGSGGGSGGGS ?
Result: 0.002

Problem: // repeat for Reg1 CRD-mouse IgG2a-Fc fusion protein (Fc fusion) ISCPEGSNAYSSYCYYFTEDRLTWADADLFCQNMNSGYLVSVLSQAEGNFVASLIKESGTTDANVWTGLHDPKRNRRWHWSSGSLFLYKSWATGSPNSSNRGYCVSLTSNTGYKKWKDDNCDAQYSFVCKFGGGSGGGSGGGS and report
Result: 0.009

Problem: Query Clec18a CRD-mouse IgG2a-Fc fusion protein (Fc fusion) IDGDCFMVSPEADTYYGAKMKCQGKGGVLAQIESQKVQDILAFYLGRLETTNEVTDSDFETKNFWIGLTYKAAKDSFRWTTGEHQSFTSFAFGQPDNQGFGNCVEMQASAAFNWNDQRCKTRNRYICQGGGSGGGSGGGS next
Result: 0

Problem: // repeat for Cd209a CRD-mouse IgG2a-Fc fusion protein (Fc fusion) FQGSCYFFSVAQKSWNDSATACHNVGAQLVVIKSDEEQNFLQQTSKKRGYTWMGLIDMSKESTWYWVDGSPLTLSFMKYWSKGEPNNLGEEDCAEFRDDGWNDTKCTNKKFWICKGGGSGGGSGGGS and report
Result: 0.028
